Below, each entry is listed with its recorded % Inhibition.
test system: PCSK9 mRNA; test: Dose-dependent antisense inhibition of PCSK9 in Hep3B cells, EC50 (Table 76); format: cell-based, human; conditions: 20 nM
Strand notation (5' to 3'): a small letter for the sugar, then the base; units joined by * are phosphorothioate-linked, units joined directly phosphodiester-linked; [ ] holds rarer units or linkages, { } end groups; capitals alone tell only the bases. e = 2'-O-(2-methoxyethyl) (MOE); [5mC] = 5-methylcytosine; d = 2'-deoxy (DNA)
quantityMeasured: % Inhibition (%)

400307 (antisense e[5mC]*eG*dG*d[5mC]*d[5mC]*dG*d[5mC]*dT*dG*dA*d[5mC]*d[5mC]*eA*e[5mC]) [compound 400307] :: 45
400330 (antisense e[5mC]*e[5mC]*dA*d[5mC]*dG*dT*dG*dG*dG*d[5mC]*dA*dG*e[5mC]*eA) [compound 400330] :: 40
400309 (antisense e[5mC]*e[5mC]*d[5mC]*dG*dG*d[5mC]*d[5mC]*dG*d[5mC]*dT*dG*dA*e[5mC]*e[5mC]) [compound 400309] :: 38
400331 (antisense eG*e[5mC]*d[5mC]*dA*d[5mC]*dG*dT*dG*dG*dG*d[5mC]*dA*eG*e[5mC]) [compound 400331] :: 47
400308 (antisense e[5mC]*e[5mC]*dG*dG*d[5mC]*d[5mC]*dG*d[5mC]*dT*dG*dA*d[5mC]*e[5mC]*eA) [compound 400308] :: 26
400352 (antisense e[5mC]*eA*d[5mC]*d[5mC]*d[5mC]*dT*d[5mC]*dA*d[5mC]*d[5mC]*d[5mC]*d[5mC]*e[5mC]*eA) [compound 400352] :: 40
400353 (antisense eA*e[5mC]*dA*d[5mC]*d[5mC]*d[5mC]*dT*d[5mC]*dA*d[5mC]*d[5mC]*d[5mC]*e[5mC]*e[5mC]) [compound 400353] :: 23
400327 (antisense eG*eT*d[5mC]*d[5mC]*d[5mC]*d[5mC]*dA*dA*dA*dG*dT*d[5mC]*e[5mC]*e[5mC]) [compound 400327] :: 23

###

# % Inhibition values compiled below
system: PTP1B mRNA; assay: Dose response for human PTP1B in HuVEC cells, PPS 198 and PPS 3000 (Tables 86, 87); assay type: cell-based; settings: PPS 198, 3.33 nM
Strand notation (5' to 3'): a small letter for the sugar, then the base; units joined by * are phosphorothioate-linked, units joined directly phosphodiester-linked; [ ] holds rarer units or linkages, { } end groups; capitals alone tell only the bases. e = 2'-O-(2-methoxyethyl) (MOE); [5mC] = 5-methylcytosine; d = 2'-deoxy (DNA)
quantityMeasured: % Inhibition

399276 (eG*eA*dG*dG*dT*dA*dT*d[5mC]*d[5mC]*d[5mC]*dA*dT*e[5mC]*eT; antisense) [compound 399276] :: 8%
399301 (GTGTGCACACAGCT; all C 5-methyl, all phosphorothioate, sugars by position not given here; further chemistry not fully specified) [compound 399301] :: 63%
399102 (eG*eA*dA*dG*dT*d[5mC]*dA*d[5mC]*dT*dG*dG*d[5mC]*eT*eT; antisense) [compound 399102] :: 15%
399315 (antisense eG*eG*d[5mC]*dA*dA*d[5mC]*dT*dT*d[5mC]*dA*dA*d[5mC]*e[5mC]*eT) [compound 399315] :: 20%
398105 (eT*eG*d[5mC]*dA*d[5mC]*dA*dG*dG*d[5mC]*dA*dG*dG*eT*eT) [compound 398105] :: 25%
399173 (eA*eT*dG*d[5mC]*dT*dA*dG*dT*dG*d[5mC]*dA*d[5mC]*eT*eA; antisense) [compound 399173] :: 24%
399132 (eG*eG*dG*d[5mC]*dT*dG*dA*dG*dT*dG*dA*d[5mC]*e[5mC]*e[5mC]; antisense) [compound 399132] :: 32%
399208 (eA*eG*d[5mC]*dT*d[5mC]*dG*d[5mC]*dT*dA*d[5mC]*d[5mC]*dT*e[5mC]*eT; antisense) [compound 399208] :: 37%
399096 (eT*eG*d[5mC]*dT*d[5mC]*dG*dA*dA*d[5mC]*dT*d[5mC]*d[5mC]*eT*eT; antisense) [compound 399096] :: 30%
399113 (eG*eT*dT*dA*dG*dG*d[5mC]*dA*dA*dA*dG*dG*eG*e[5mC]; antisense) [compound 399113] :: 31%
398173 (e[5mC]*dA*dG*d[5mC]*d[5mC]*dT*dG*dG*dG*d[5mC]*dA*e[5mC]) [compound 398173] :: 4%
398112 (e[5mC]*eA*dG*d[5mC]*d[5mC]*dT*dG*dG*d[5mC]*dA*d[5mC]*d[5mC]*eT*eA) [compound 398112] :: 10%
398120 (eG*eT*dT*d[5mC]*dA*dA*dG*d[5mC]*dG*dG*d[5mC]*d[5mC]*eT*eA) [compound 398120] :: 31%
